Would you mind telling me the reported TGI of each entry?
Tested on: UACC-257 melanoma
Assay: NCI tumour cell line growth inhibition, 48 h
Give bare numbers, in µM.

Some entries whose results are on file:
> print(dat)
                                   compound  numeric.readout
1  CCOC(=O)C#Cc1c(C(=O)OCC)nnn1Cc1ccc([N+](=O)[O-])cc1             7.08
2  COC(=O)C12OCC34C(CC5C(C)C6=CC(=O)OC6=CC5(C)C3C(O)C1O)OC(=O)C(O)C24 (stereo not given)              8.5
3  CCN(CCCl)c1cc(CN(C)C)cc(NC(=O)C23CCC(C(=O)Nc4cc(CN(C)C)cc(N(CC)CCCl)c4)(CC2)CC3)c1             15.5
4  CO/N=C(\COc1ccc2oc(-c3ccccc3)cc(=O)c2c1)c1ccc(OC)cc1             63.3
5  C[N+](C)(C)CC(=O)N/N=C(\C(=O)NC1=C(Cl)C(=O)c2ccccc2C1=O)C(C#N)c1nc(-c2ccc([N+](=O)[O-])cc2)cs1 (stereo not given)             9.11

// each compound listed below needs its TGI
1. Cc1ccc(C2COc3cc(O)c(O)cc3C2)cc1 (stereo not given)
2. CSC1=NNC(SC)=NN1
3. C=C1C(=O)O[C@H]2[C@H]1CC/C(COC(=O)C(C)c1ccc(CC(C)C)cc1)=C\CC[C@@]1(C)O[C@@H]21 (stereo not given in full)

Marked response:
[69.6, 0.258, 3.32]

* * *

Test system: LOX IMVI melanoma
Assay: NCI tumour cell line growth inhibition, 48 h; in the data active = GI50 below about 0.43 µM; inactive = the rest
Select the correct class. Options are active, inactive and nothing else.

Consider the following illustrative entries.
> print(dat)
                                 molecule     assayed.target  category.label
1       CN(C)CCNc1c2ccccc2nc2oc3ccccc3c12  LOX IMVI melanoma        inactive
2  O=C1C=CC(=O)N1c1cccc(N2C(=O)C=CC2=O)c1  LOX IMVI melanoma        inactive
3   Oc1ccc(C2c3ccccc3Oc3ccccc32)c2cccnc12  LOX IMVI melanoma        inactive

Exam item: Recorded test call requested for NS(=O)(=O)NCCNc1nonc1C(=Nc1ccc(F)c(Br)c1)NO
Marked response: inactive

Exam item: For COC(=O)C12OCC34C(CC5C(C)C6=CC(=O)OC6=CC5(C)C3C(O)C1O)OC(=O)C(O)C24 (centres undefined) , what call appears in the results of this test?
Marked response: active

Exam item: Lab log entry: O=C(/C=C/C12c3ccccc3C(c3ccccc31)C1C(=O)NC(=O)C12)c1ccc(F)cc1 (centres undefined) — outcome as called in the assay?
Marked response: inactive

Exam item: What call does the record list for O=C1/C(=C/c2ccc(Cl)cc2)CCC/C1=C\c1ccc(Cl)cc1 ?
Marked response: inactive

Exam item: Per the assay record, what outcome was assigned to CCOC(=O)C#Cc1c(C(=O)OCC)nnn1Cc1ccc([N+](=O)[O-])cc1 ?
Marked response: inactive

Exam item: Check the results log: what was the call for CC(=O)O[C@H](C[C@H](C(C)C)N(C)C(=O)[C@@H](NC(=O)[C@H]1CCCN1C)C(C)C)c1nc(C(=O)N[C@@H](Cc2ccccc2)C[C@H](C)C(=O)O)c(C)s1 ?
Marked response: active
